Assay Target: Ataxin-2 (Homo sapiens)
Experiment Notes: qHTS for Inhibitors of ATXN expression.
Assay type: functional
The whole screen tested about 400,000 compounds, of which about 2,100 (0.53%) were called active. Roughly 14% stayed inconclusive and do not appear here. The rule behind the calls is not given here. The list comes from a sample in which actives are over-represented; it also holds close analogues and randomly drawn compounds.
Outcome codes: active, inactive

{"Molecule": "CCN(CC(=O)N(CC(C)C)c1c(N)n(CC(C)C)c(=O)[nH]c1=O)Cc1nc(O)c2ccccc2n1", "Assigned Label": "inactive"}
{"Molecule": "COc1ccc(-c2cc(=O)oc3c(O)c(O)ccc23)cc1", "Assigned Label": "inactive"}
{"Molecule": "CCCOc1ccc(/C=N/Nc2cccc([N+](=O)[O-])c2)c(O)c1", "Assigned Label": "inactive"}
{"Molecule": "COc1ccc2oc(=O)c(C(=O)N3CCN(C(=O)c4ccco4)CC3)cc2c1", "Assigned Label": "inactive"}
{"Molecule": "Cc1ccc(Nc2nc(-c3sc(C)nc3C)cs2)cc1", "Assigned Label": "inactive"}
{"Molecule": "CCn1nc(C)c(/C=N/NC(=O)c2nc3nc(C)cc(C)n3n2)c1C", "Assigned Label": "inactive"}
{"Molecule": "CCOc1ccc2nc(C)cc(Nc3cccc([N+](=O)[O-])c3)c2c1", "Assigned Label": "active"}
{"Molecule": "Cc1csc(NC(=O)c2c(-c3ccccc3)noc2C)n1", "Assigned Label": "inactive"}
{"Molecule": "O=C(CSc1nnnn1C1CCCCC1)N1CCN(C(=O)c2ccco2)CC1", "Assigned Label": "inactive"}
{"Molecule": "Cc1ccccc1CNC(=O)c1ccccc1NS(C)(=O)=O", "Assigned Label": "inactive"}
{"Molecule": "CC1CCCCN1S(=O)(=O)c1ccc(C(=O)N(CCCN(C)C)c2nc3ccc(Br)cc3s2)cc1 (centres undefined)", "Assigned Label": "active"}
{"Molecule": "NS(=O)(=O)c1ccc(CNC(=O)/C=C/c2ccco2)cc1", "Assigned Label": "inactive"}
{"Molecule": "O=C(CSc1ccccc1)N1CCN(C(=O)c2ccco2)CC1", "Assigned Label": "inactive"}
{"Molecule": "O=c1oc2ccccc2cc1-c1nc2c(s1)CCc1ccccc1-2", "Assigned Label": "inactive"}
{"Molecule": "Cc1nn(C(C)C(=O)NCC2CCCO2)c(C)c1[N+](=O)[O-] (centres undefined)", "Assigned Label": "inactive"}
{"Molecule": "COc1cc(/C=C/c2onc(C)c2[N+](=O)[O-])cc(OC)c1OC", "Assigned Label": "inactive"}
{"Molecule": "CC(C)CCn1c(=O)c2ccccc2n2c(S)nnc12", "Assigned Label": "inactive"}
{"Molecule": "Cc1sc2nc(C(C)C)nc(SCC(=O)N3CCN(C(=O)c4ccco4)CC3)c2c1C", "Assigned Label": "active"}
{"Molecule": "CN(C)c1ccc(/C=C/c2nc3ccccc3c(=O)n2CCO)cc1", "Assigned Label": "inactive"}
{"Molecule": "O/N=C/c1cc2ccccc2n1Cc1ccccc1F", "Assigned Label": "inactive"}
{"Molecule": "Cc1ccccc1C(=O)NCCCNC(=O)c1ccco1", "Assigned Label": "inactive"}
{"Molecule": "CCN(C(=O)COC(=O)C1CCC(C(C)(C)C)CC1)c1c(N)n(Cc2ccccc2)c(=O)[nH]c1=O (centres undefined)", "Assigned Label": "active"}
{"Molecule": "O=C(NCCOc1ccccc1)c1ccccc1Cl", "Assigned Label": "inactive"}
{"Molecule": "O=C(COC(=O)c1ccc2ccccc2c1)NCCCc1ccccc1", "Assigned Label": "inactive"}
{"Molecule": "NC(=O)c1ccc(Oc2ccc(Cl)cc2)c([N+](=O)[O-])c1", "Assigned Label": "inactive"}
{"Molecule": "CCN(C(=O)COC(=O)CCS(=O)(=O)c1ccccc1)c1c(N)n(Cc2ccccc2)c(=O)[nH]c1=O", "Assigned Label": "inactive"}
{"Molecule": "N#CC1=CN(Cc2ccccc2)C=C(/C=N/Nc2ccccc2)C1", "Assigned Label": "inactive"}
{"Molecule": "CCCn1c(N)c(C(=O)CSc2nncs2)c(=O)[nH]c1=O", "Assigned Label": "inactive"}
{"Molecule": "Cc1ccccc1CS(=O)(=O)Cc1ccc(C(=O)NCCCN2CC(C)CC(C)C2)o1 (centres undefined)", "Assigned Label": "active"}
{"Molecule": "CCc1cc2ccc(OC)cc2nc1SCC(=O)N1CCN(C(=O)c2ccco2)CC1", "Assigned Label": "active"}
{"Molecule": "CCN1CCN(c2nc(NCCO)c3ccccc3n2)CC1", "Assigned Label": "inactive"}
{"Molecule": "Cc1cc(C(=O)N2CCN(C(=O)c3ccco3)CC2)ccc1[N+](=O)[O-]", "Assigned Label": "inactive"}
{"Molecule": "Cc1ccc(Nc2nc(-c3ccc(O)cc3O)cs2)nc1", "Assigned Label": "active"}
{"Molecule": "CCN(C(=O)COC(=O)CCC(=O)c1ccc(Cl)cc1)c1c(N)n(Cc2ccccc2)c(=O)[nH]c1=O", "Assigned Label": "inactive"}
{"Molecule": "OCCCc1nc2n(n1)C(c1ccccc1)C=C(c1ccc(F)cc1)N2 (centres undefined)", "Assigned Label": "inactive"}
{"Molecule": "O=C1Nc2cc(C(=O)N3CCC(N4CCCCC4)CC3)ccc2S/C1=C\\c1ccccc1", "Assigned Label": "active"}
{"Molecule": "N=c1c2c(-c3ccccc3)c(-c3ccccc3)n(Cc3ccccc3)c2ncn1CCCn1ccnc1", "Assigned Label": "active"}
{"Molecule": "COCCCn1c(=O)/c(=C\\c2ccc(OC(F)F)c(OC)c2)s/c1=C(/C#N)C(N)=O", "Assigned Label": "inactive"}
{"Molecule": "Cc1ccc(Nc2nc(-c3ccccc3)cs2)nc1", "Assigned Label": "inactive"}
{"Molecule": "Fc1ccc(-c2cc(C(F)(F)C(F)F)n[nH]2)cc1", "Assigned Label": "inactive"}
{"Molecule": "COC(=O)c1c(NC(=O)c2ccc(S(=O)(=O)N3CCCCC3C)cc2)sc2c1CCN(C(C)C)C2 (centres undefined)", "Assigned Label": "inactive"}
{"Molecule": "c1ccc(-c2c(-c3ccccc3)n(Cc3ccco3)c3ncnc(NCCCn4ccnc4)c23)cc1", "Assigned Label": "active"}
{"Molecule": "O=c1c2ccccc2nc(/C=C/c2ccc([N+](=O)[O-])o2)n1CCCO", "Assigned Label": "active"}
{"Molecule": "COc1ccc2c(c1)c(=O)oc1cc(O)ccc12", "Assigned Label": "inactive"}
